Assay: Bioavailability in sc dosed rat
Format: ADME, organism-based
Conditions: in vivo
assay.metric: bioavailability

> print(dat)
                                   compound  recorded.measurement
1  N=C(N)c1ccc2[nH]c(-c3cc(C(CC(=O)O)C(=O)O)cc(-c4cc(F)ccc4O)c3O)nc2c1 (stereo unspecified)                 > 90%

###

Known MRT of a selection of compounds
Assay: Mean residence time in iv dosed rat
Assay type: ADME, organism-based
Details: in vivo
assay.metric: MRT

> print(dat)
                                    compound  assay.metric  recorded.measurement
 1  N=C(N)c1ccc2[nH]c(-c3cc(CC(=O)O)cc(-c4cccc([N+](=O)[O-])c4)c3O)cc2c1           MRT                 < 1 h
 2  N=C(N)c1ccc2nc(-c3cc(C(CCC(=O)O)C(=O)O)cc(-c4cccc([N+](=O)[O-])c4)c3O)[nH]c2c1 (stereo not given)           MRT                   5 h
 3  N=C(N)c1ccc2nc(-c3cc(CC(C(=O)O)C(=O)O)cc(-c4cccc([N+](=O)[O-])c4)c3O)[nH]c2c1           MRT                 < 1 h
 4  N=C(N)c1ccc2[nH]c(-c3cc(C(CC(=O)O)C(=O)O)cc(-c4cccc([N+](=O)[O-])c4)c3O)cc2c1 (stereo not given)           MRT                > 24 h
 5  N=C(N)c1ccc2[nH]c(-c3cc(C(CC(=O)O)CC(=O)O)cc(-c4cccc([N+](=O)[O-])c4)c3O)cc2c1           MRT                 1.5 h
 6  N=C(N)c1ccc2[nH]c(-c3cc(C(CC(=O)O)C(=O)O)cc(-c4cc(F)ccc4O)c3O)nc2c1 (stereo not given)           MRT                   9 h
 7  N=C(N)c1ccc2[nH]c(-c3cc(CC(CC(=O)O)C(=O)O)cc(-c4cc(F)ccc4O)c3O)nc2c1 (stereo not given)           MRT                 < 1 h
 8  N=C(N)c1ccc2nc(-c3cc(CC(=O)O)cc(-c4cccc([N+](=O)[O-])c4)c3O)[nH]c2c1           MRT                 < 1 h
 9  N=C(N)c1ccc2[nH]c(-c3cc(C(CC(=O)O)C(=O)O)cc(-c4cccc([N+](=O)[O-])c4)c3O)nc2c1 (stereo not given)           MRT                > 24 h
10  N=C(N)c1ccc2[nH]c(-c3cc(CC(=O)O)cc(-c4cc(F)ccc4O)c3O)nc2c1           MRT                 < 1 h

###

Biological target: Coagulation factor VII/tissue factor (Homo sapiens, UniProt P08709)
Sequence (P08709 61-212 limits assumed): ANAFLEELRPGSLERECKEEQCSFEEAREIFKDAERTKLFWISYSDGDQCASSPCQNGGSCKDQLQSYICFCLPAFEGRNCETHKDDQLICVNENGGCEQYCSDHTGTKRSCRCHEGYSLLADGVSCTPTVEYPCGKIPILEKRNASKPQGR
Sequence (P08709 213-466 limits assumed): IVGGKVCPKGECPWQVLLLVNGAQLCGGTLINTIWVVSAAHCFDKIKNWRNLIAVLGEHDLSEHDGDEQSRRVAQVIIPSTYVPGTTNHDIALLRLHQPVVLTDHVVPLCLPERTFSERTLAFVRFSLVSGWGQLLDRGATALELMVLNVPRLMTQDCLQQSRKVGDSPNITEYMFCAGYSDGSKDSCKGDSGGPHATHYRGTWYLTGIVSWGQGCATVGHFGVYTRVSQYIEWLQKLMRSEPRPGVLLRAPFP
Sequence (P13726 33-295 partner limits assumed): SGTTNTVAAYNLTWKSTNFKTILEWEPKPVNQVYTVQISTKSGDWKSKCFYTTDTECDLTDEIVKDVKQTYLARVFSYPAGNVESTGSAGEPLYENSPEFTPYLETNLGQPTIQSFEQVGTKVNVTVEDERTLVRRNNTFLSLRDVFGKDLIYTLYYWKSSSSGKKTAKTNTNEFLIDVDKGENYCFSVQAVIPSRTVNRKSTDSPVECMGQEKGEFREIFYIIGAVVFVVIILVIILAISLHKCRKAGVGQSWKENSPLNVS
Test: Binding affinity to factor7a/TF complex
pKi: −log10 of the molar value.
Known pKi of a selection of molecules
assay.metric: pKi

> print(dat)
                                   molecule  assay.metric  recorded.measurement
1  N=C(N)c1ccc2[nH]c(-c3cc(CC(=O)O)cc(-c4cc(F)ccc4O)c3O)nc2c1           pKi                  8.70
2  N=C(N)c1ccc2nc(-c3cc(C(CC(=O)O)CC(=O)O)cc(-c4cccc([N+](=O)[O-])c4)c3O)[nH]c2c1           pKi                  7.44
3  N=C(N)c1ccc2[nH]c(-c3cc(CC(CC(=O)O)C(=O)O)cc(-c4cc(F)ccc4O)c3O)nc2c1 (centres undefined)           pKi                  8.40
4  N=C(N)c1ccc2[nH]c(-c3cc(C(CC(=O)O)C(=O)O)cc(-c4cc(F)ccc4O)c3O)nc2c1 (centres undefined)           pKi                  8.40
